Every entry's value here was drawn from patent US5688787A.

Examples of compounds with documented change in vivo at 50 mg/kg follow.
Test system: Hyperlipidemic Hamster
assay-comment: In Vivo Assay of Hypolipidemic Agents Using the Hyperlipidemic Hamster
test-parameters: Mesocricetus auratus, po, 168 h, 50 mg/kg once daily oral, 7 days; percent change versus control, negative = lowering; read-out: % Reduction (in vivo) Cholest. Esters
measured-endpoint: change in vivo at 50 mg/kg (%)

1) COc1ccc([C@H]2[C@@H](CCOc3ccc(F)cc3)C(=O)N2c2ccccc2)cc1 (relative stereo) ... -95
2) COc1ccc([C@@H]2[C@H](NC(=O)N(C)c3ccccc3)C(=O)N2c2ccccc2)cc1 (relative stereo) [Example 12D] ... 0
3) CC[C@@H]1C(=O)N(c2ccc(OC)cc2)[C@H]1c1ccc([N+](=O)[O-])cc1 (relative stereo) ... 0
4) COc1ccc(N2C(=O)[C@@H](CCc3ccccc3)[C@H]2c2ccccc2)cc1 (relative stereo) ... 0
5) COc1ccc(N2C(=O)[C@H](CCCc3ccccc3)[C@@H]2c2ccc(OC)c(OC)c2)cc1 (relative stereo) ... 0
6) COc1ccc(CN[C@@H]2C(=O)N(c3ccccc3)[C@@H]2c2ccc(OC)cc2)cc1 (relative stereo) [Example 14A] ... -78
7) COc1ccc(N2C(=O)C(c3ccccc3)(C3CCCC3)C2c2ccccc2)cc1 (stereo not shown) ... -33

###

test-target: ACAT (Rattus norvegicus, UniProt Q7TQM4)
Construct: Rat liver microsomes are used as the source of ACAT; from tissue; host or cells: rat liver microsomes
Sequence (Q7TQM4 whole entry): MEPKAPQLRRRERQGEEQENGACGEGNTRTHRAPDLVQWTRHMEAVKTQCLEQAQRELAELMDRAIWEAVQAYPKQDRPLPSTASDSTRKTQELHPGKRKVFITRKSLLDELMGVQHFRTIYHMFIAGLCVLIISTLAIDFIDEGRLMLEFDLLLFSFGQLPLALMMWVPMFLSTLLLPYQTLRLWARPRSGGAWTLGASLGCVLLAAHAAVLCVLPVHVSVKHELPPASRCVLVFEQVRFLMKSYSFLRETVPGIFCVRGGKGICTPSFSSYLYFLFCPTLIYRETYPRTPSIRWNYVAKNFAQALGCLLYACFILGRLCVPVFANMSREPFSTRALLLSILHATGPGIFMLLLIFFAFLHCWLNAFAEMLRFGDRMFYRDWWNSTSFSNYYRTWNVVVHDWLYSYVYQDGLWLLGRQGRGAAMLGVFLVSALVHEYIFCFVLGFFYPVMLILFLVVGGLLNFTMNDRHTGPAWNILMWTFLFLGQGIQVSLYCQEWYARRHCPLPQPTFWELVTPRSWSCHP
assay-comment: ACAT Assay (in vitro)
Type: biochemical
test-parameters: Conc. 10 µM; negative = apparent stimulation; read-out: ACAT (in vitro) % Inhib.
Returns t if the recorded inhibition at 10 µM is greater than or equal to 50%, and f otherwise.

1. CC[C@@]1(CCCc2ccccc2)C(=O)N(c2ccc(OC)cc2)[C@H]1C=Cc1ccccc1 (relative stereo) ... t
2. CCCCCCCCCC[C@]1(CC)C(=O)N(c2c(OC)cc(OC)cc2OC)[C@@H]1c1ccccc1 (relative stereo) ... t
3. COc1ccc(N2C(=O)[C@H](CCCc3ccccc3)[C@@H]2c2ccoc2)cc1 (relative stereo) ... f
4. COc1ccc(N2C(=O)[C@H](CCCc3ccccc3)[C@@H]2c2ccc([N+](=O)[O-])cc2)cc1 (relative stereo) ... t
5. CCCCCCCCCC[C@]1(c2ccccc2)C(=O)N(c2ccc(OC)cc2)[C@H]1c1ccccc1 (relative stereo) ... f
6. COc1ccc([C@H]2[C@@H](CCc3ccccc3)C(=O)N2c2ccc(OC)cc2)cc1 (relative stereo) ... f
7. COc1ccc(C=C[C@H]2[C@H](CCCc3ccccc3)C(=O)N2c2ccc(OC)cc2)cc1 (relative stereo) ... t

###

Examples of compounds with documented change in vivo at 50 mg/kg follow.
System: Hyperlipidemic Hamster
assay-comment: In Vivo Assay of Hypolipidemic Agents Using the Hyperlipidemic Hamster
test-parameters: Mesocricetus auratus, po, 168 h, 50 mg/kg once daily oral, 7 days; percent change versus control, negative = lowering; read-out: % Reduction (in vivo) Cholest. Esters
measured-endpoint: change in vivo at 50 mg/kg

1. COc1ccc([C@@H]2[C@@H](CCOc3ccc(F)cc3)C(=O)N2c2ccc(OC)cc2)cc1 (relative stereo) ... -93%
2. COc1ccc(N2C(=O)[C@@H](CCCc3ccccc3)[C@@H]2c2ccc(SC)cc2)cc1 (relative stereo) ... 0%
3. COc1ccc([C@@H]2N(c3ccc(OC)cc3)C(=O)[C@]2(Cc2ccccc2)c2ccccc2)cc1 (relative stereo) ... -15%
4. COc1ccc([C@@H]2[C@H](Cc3ccc4ccccc4c3)C(=O)N2c2ccccc2)cc1 (relative stereo) ... -91%
5. COc1ccc([C@@H]2[C@@H](CCCc3ccccc3)C(=O)N2c2ccc(I)cc2)cc1 (relative stereo) ... -42%
6. COc1ccc([C@@H]2[C@H](NCCCC3CCCCC3)C(=O)N2c2ccccc2)cc1 (relative stereo) [Example 14C] ... 0%
7. C=CCOc1ccc([C@@H]2[C@@H](CCCc3ccccc3)C(=O)N2c2ccc(OC)cc2)cc1 (relative stereo) ... -86%
8. COc1ccc([C@@H]2[C@@H](CCCc3ccccc3)C(=O)N2c2cccnc2)cc1 (relative stereo) ... -29%
9. COc1ccc([C@@H]2[C@H](NS(=O)(=O)c3ccc(C)cc3)C(=O)N2c2ccccc2)cc1 (relative stereo) ... 0%
10. CC[C@@H]1C(=O)N(c2ccc(OC)cc2)[C@@H]1c1ccc(OC)cc1 (relative stereo) ... 0%
11. COc1ccc(N2C(=O)[C@H](CCCc3ccccc3)[C@@H]2c2cn(C)c3ccccc23)cc1 (relative stereo) ... -29%
12. COc1ccc(N2C(=O)[C@](CCCc3ccccc3)(c3ccccc3)[C@@H]2c2ccccc2)cc1 (relative stereo) ... -16%
13. COC(=O)C=C(C)N[C@@H]1C(=O)N(c2ccccc2)[C@@H]1c1ccc(OC)cc1 (relative stereo) ... -27%
14. COc1ccc(N2C(=O)[C@@H](CCCc3ccccc3)[C@@H]2c2cccc(OC(F)(F)F)c2)cc1 (relative stereo) ... 0%

###

Tested on: Hyperlipidemic Hamster
assay-comment: In Vivo Assay of Hypolipidemic Agents Using the Hyperlipidemic Hamster
test-parameters: Mesocricetus auratus, po, 168 h, 50 mg/kg once daily oral, 7 days; percent change versus control, negative = lowering; read-out: % Reduction (in vivo) Cholest. Esters
Classify: True when change in vivo at 50 mg/kg is strictly less than -20%; False when change in vivo at 50 mg/kg is not.

1) COc1ccc(N2C(=O)[C@H](CCCc3ccccc3)[C@@H]2c2ccoc2)cc1 (relative stereo) ... True
2) CCCCOc1ccc([C@H]2[C@@H](CCCc3ccccc3)C(=O)N2c2ccc(OC)cc2)cc1 (relative stereo) ... True
3) COc1ccc(N2C(=O)[C@H](CCCc3ccccc3)[C@H]2c2ccc(OC(C)C)cc2)cc1 (relative stereo) ... True
4) COc1ccc([C@@H]2[C@@H](CCCc3ccccc3)C(=O)N2c2ccc(C)cc2)cc1 (relative stereo) ... True
5) COc1ccc([C@H]2[C@@H](CCCc3ccccc3)C(=O)N2c2ccc(C)cc2)cc1 (relative stereo) ... True
6) COc1ccc(N2C(=O)[C@@H](CCCc3ccccc3)[C@@H]2c2ccccc2)cc1 (relative stereo) ... False
7) COc1ccc(N2C(=O)[C@H](CCCc3ccccc3)[C@@H]2c2ccc(CN3CCN(C)CC3)cc2)cc1 (relative stereo) [Example 19B] ... True
8) COc1ccc([C@@H]2[C@H](NCCc3ccccc3)C(=O)N2c2ccccc2)cc1 (relative stereo) ... True
9) COc1ccc(N2C(=O)[C@H](CCCc3ccccc3)[C@@H]2c2ccc(C(=O)N3CCOCC3)cc2)cc1 (relative stereo) ... True
10) COc1ccc(N2C(=O)[C@H](CCCc3ccccc3)[C@@H]2CN2CCOCC2)cc1 (relative stereo) [Example 19E] ... True
11) COc1ccc(N2C(=O)[C@H](CCCc3ccccc3)[C@H]2c2ccc3c(c2)OCO3)cc1 (relative stereo) ... False
12) COc1ccc([C@H]2[C@@H](CCOc3ccccc3)C(=O)N2c2ccc(OC)cc2)cc1 (relative stereo) ... True
13) COc1ccc(N2C(=O)[C@@H](CCCc3ccccc3)[C@H]2c2ccc(CO)cc2)cc1 (relative stereo) [Example 15A] ... False
14) CCCCCCCCCC[C@H]1C(=O)N(c2ccc(OC)cc2)[C@@H]1c1ccc(OC)cc1 (relative stereo) ... False

###

test-target: ACAT (Rattus norvegicus, UniProt Q7TQM4)
Construct: Rat liver microsomes are used as the source of ACAT; from tissue; host or cells: rat liver microsomes
assay-comment: ACAT Assay (in vitro)
Assay type: biochemical
test-parameters: Conc. 10 µM; negative = apparent stimulation; read-out: ACAT (in vitro) % Inhib.
Returns 1 if the recorded inhibition at 10 µM is greater than or equal to 20%, and 0 otherwise.

1. COc1ccc(N2C(=O)[C@@H](CCCc3ccccc3)[C@H]2c2ccc(CO)cc2)cc1 (relative stereo) [Example 15A] ... 0
2. COc1ccc(N2C(=O)[C@H](CCCc3ccccc3)[C@H]2c2ccc(N)cc2)cc1 (relative stereo) [Example 8C] ... 1
3. COc1ccc(N2C(=O)[C@@H](C)[C@@H]2c2ccccc2)cc1 (relative stereo) [Example 1AI] ... 1
4. CC[C@H]1C(=O)N(c2c(OC)cc(OC)cc2OC)[C@H]1c1ccccc1 (relative stereo) [Example 1AE] ... 0
5. COc1ccc([C@@H]2[C@@H](N(C)CCc3ccccc3)C(=O)N2c2ccccc2)cc1 (relative stereo) [Example 5N] ... 0
6. COc1ccc(N2C(=O)[C@H](C(C)C)[C@@H]2c2ccccc2)cc1 (relative stereo) [Example 1W] ... 0
7. COc1ccc(N2C(=O)[C@H](CCCc3ccccc3)[C@H]2c2ccc(CN3CCOCC3)cc2)cc1 (relative stereo) [Example 19] ... 1
8. COc1ccc(N2C(=O)[C@H](CCCc3ccccc3)[C@H]2c2ccc(C)cc2)cc1 (relative stereo) [Example 5R] ... 0
9. COc1ccc(N2C(=O)[C@](CCCc3ccccc3)(c3ccccc3)[C@@H]2c2ccccc2)cc1 (relative stereo) [Example 3B] ... 1
10. COc1ccc(N2C(=O)[C@H](CCCc3ccccc3)[C@@H]2c2ccc(OC)c(OC)c2)cc1 (relative stereo) [Example 1BB] ... 0
11. CC[C@]1(c2ccccc2)C(=O)N(c2ccc(OC)cc2)[C@H]1c1ccccc1 (relative stereo) [Example 1AA] ... 0
12. COc1ccc(N2C(=O)[C@](C)(CCc3ccccc3)[C@@H]2c2ccccc2)cc1 (relative stereo) [Example 3I] ... 1
13. CC[C@]1(CCc2ccccc2)C(=O)N(c2ccc(OC)cc2)[C@H]1c1ccccc1 (relative stereo) [Example 3H] ... 1
14. COc1ccc(N2C(=O)[C@@H](CCCc3ccccc3)[C@@H]2c2ccccc2)cc1 (relative stereo) [Example 1C] ... 1
15. COc1ccc(N2C(=O)[C@H](CCCc3ccccc3)[C@H]2c2ccc(O)cc2)cc1 (relative stereo) [Example 8F] ... 0
16. CCCCCCCCCC[C@@H]1C(=O)N(c2ccc(OC)cc2)[C@@H]1c1ccc(OC)cc1 (relative stereo) [Example 1CL] ... 1
17. CC[C@@]1(CCCc2ccccc2)C(=O)N(c2c(OC)cc(OC)cc2OC)[C@H]1C=Cc1ccccc1 (relative stereo) [Example 1I] ... 1
18. COc1ccc(N2C(=O)[C@H](CCCc3ccccc3)[C@H]2c2ccc(C=O)cc2)cc1 (relative stereo) [Example 16A] ... 1
19. COc1ccc(N2C(=O)C(c3ccccc3)(C3CCCC3)C2c2ccccc2)cc1 (stereo not shown) [Example 1AC] ... 1
20. CCCCCCCCCC[C@@]1(CCCc2ccccc2)C(=O)N(c2ccc(OC)cc2)[C@@H]1c1ccccc1 (relative stereo) [Example 3C] ... 0
21. COc1cc(OC)c(N2C(=O)C(CCCc3ccccc3)C2c2ccccc2)c(OC)c1 (stereo not shown) [Example 1F] ... 1
22. COc1ccc(N2C(=O)C(CCCc3ccccc3)(CCCc3ccccc3)C2C=Cc2ccccc2)cc1 (stereo not shown) [Example 3N] ... 1
23. COc1ccc(N2C(=O)[C@H](CCCc3ccccc3)[C@@H]2c2ccsc2)cc1 (relative stereo) [Example 1BJ] ... 1
24. CCCCCCCCCC[C@@]1(CC)C(=O)N(c2c(OC)cc(OC)cc2OC)[C@@H]1c1ccccc1 (relative stereo) [Example 3W] ... 1
25. CC[C@]1(CCCc2ccccc2)C(=O)N(c2c(OC)cc(OC)cc2OC)[C@H]1C=Cc1ccccc1 (relative stereo) [Example 1J] ... 1
26. COc1ccc(N2C(=O)[C@@H](CCc3ccccc3)[C@@H]2c2ccccc2)cc1 (relative stereo) [Example 1E] ... 0
27. COc1ccc(N2C(=O)[C@@H](CCCc3ccccc3)[C@H]2c2ccc(N)cc2)cc1 (relative stereo) [Example 8B] ... 0
